- System tested: human TMEM16A (TMEM16Aabc variant) (Homo sapiens, UniProt Q5XXA6, DEL476-501)
- Sequence (Q5XXA6 with tags, fused parts or gaps isoform Q5XXA6-5 DEL539-564): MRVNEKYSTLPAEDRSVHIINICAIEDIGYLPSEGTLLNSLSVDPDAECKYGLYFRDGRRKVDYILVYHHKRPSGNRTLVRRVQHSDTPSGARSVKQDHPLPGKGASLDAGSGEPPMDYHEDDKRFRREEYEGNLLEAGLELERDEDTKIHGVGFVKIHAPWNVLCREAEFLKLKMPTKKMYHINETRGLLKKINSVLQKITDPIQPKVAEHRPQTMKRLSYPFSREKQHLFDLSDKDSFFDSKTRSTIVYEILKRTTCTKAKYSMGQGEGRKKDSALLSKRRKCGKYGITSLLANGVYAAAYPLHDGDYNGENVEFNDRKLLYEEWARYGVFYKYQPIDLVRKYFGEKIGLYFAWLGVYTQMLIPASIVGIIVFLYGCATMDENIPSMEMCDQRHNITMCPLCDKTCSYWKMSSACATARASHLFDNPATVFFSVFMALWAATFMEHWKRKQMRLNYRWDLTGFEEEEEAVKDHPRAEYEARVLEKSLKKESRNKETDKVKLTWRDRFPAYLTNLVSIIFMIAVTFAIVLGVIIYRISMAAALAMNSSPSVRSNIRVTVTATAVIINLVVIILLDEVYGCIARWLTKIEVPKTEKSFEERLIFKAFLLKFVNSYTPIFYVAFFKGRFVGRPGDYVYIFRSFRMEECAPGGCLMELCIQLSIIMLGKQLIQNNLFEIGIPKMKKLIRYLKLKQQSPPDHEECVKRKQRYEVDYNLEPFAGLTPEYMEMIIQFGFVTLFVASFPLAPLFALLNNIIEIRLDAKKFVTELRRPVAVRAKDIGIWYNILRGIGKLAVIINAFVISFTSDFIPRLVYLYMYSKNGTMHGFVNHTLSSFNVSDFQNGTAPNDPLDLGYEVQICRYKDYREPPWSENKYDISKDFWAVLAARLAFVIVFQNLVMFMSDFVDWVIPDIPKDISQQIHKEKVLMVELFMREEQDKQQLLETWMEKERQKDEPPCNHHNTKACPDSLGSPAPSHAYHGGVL
- Assay explanation: Automated whole-cell patch clamp (Qpatch) TMEM16A potentiator assay in FRT cells stably expressing human TMEM16A
- Type: cell-based
- Stated conditions: 3.33 μM test compound, percentage increase of baseline TMEM16A current at +70 mV, intracellular calcium at EC20, read-out: % Potentiation @ 3.33 μM Avg
Property: activation at 3.33 µM

O=C(NCC1CCCCCCC1)c1ccc2[nH]c(Cc3ccccc3)nc2c1 : 76.1%
CC1(CNC(=O)c2ccc3[nH]c(Cc4ccccc4)nc3c2)CCCC1 : 144%

### Prompt Lab request: please report activation at 3.33 µM under test system human TMEM16A (TMEM16Aabc variant) (Homo sapiens, UniProt Q5XXA6, DEL476-501) for CN(C(=O)OC(C)(C)C)[C@@H](c1ccccc1)c1nc2cc(NC(=O)CC3C4CC5CC(C4)CC3C5)ccc2[nH]1 (stereo partly shown)
### Response 127%

### Prompt Proceed to O=C(NCC1CCCCCC1)c1ccc2[nH]c(C(CO)c3ccccc3)nc2c1 (stereo not shown)
### Response 92.9%

### Prompt Similarly, O=C(CC12CC3CC(CC(C3)C1)C2)Nc1ccc2[nH]c(Cc3ccccc3)nc2c1 ?
### Response 219%

### Prompt Another compound to look at: COCCCc1nc2cc(NC(=O)CC3C4CC5CC(C4)CC3C5)ccc2[nH]1 (stereo not shown)
### Response 167%

### Prompt Can you check COc1cccc(Cc2nc3cc(NC(=O)CC4C5CC6CC(C5)CC4C6)ccc3[nH]2)c1 (stereo not shown) next?
### Response 136%

### Prompt Field entry: O=C(CC1CCCCC1)Nc1ccc2[nH]c(Cc3cccc(O)c3)nc2c1
### Response 93.1%

### Prompt And then O=C(NCC1CCCCCC1)c1ccc2[nH]c(C3COc4ccccc43)nc2c1 (stereo not shown) , what is it?
### Response 133%

### Prompt Can you check O=C(CC1CCCCCC1)Nc1ccc2[nH]c(Cc3cccc(O)c3)nc2c1 next?
### Response 136%

### Prompt Again, but for CC(C)(C)OC(=O)NCCc1nc2cc(NC(=O)CC3C4CC5CC(C4)CC3C5)ccc2[nH]1 (stereo not shown)
### Response 99.8%

### Prompt Proceed to COCCc1nc2ccc(NC(=O)CC3C4CC5CC(C4)CC3C5)cc2[nH]1 (stereo not shown)
### Response 113%

### Prompt And COCC(NC(=O)OC(C)(C)C)c1nc2cc(NC(=O)CC3C4CC5CC(C4)CC3C5)ccc2[nH]1 (stereo not shown) ?
### Response 197%

### Prompt // same read-out, input: CN(C(=O)OC(C)(C)C)[C@H](c1ccccc1)c1nc2cc(NC(=O)CC3C4CC5CC(C4)CC3C5)ccc2[nH]1 (stereo partly shown)
### Response 97.7%

### Prompt Proceed to CN(Cc1nc2cc(NC(=O)CC3C4CC5CC(C4)CC3C5)ccc2[nH]1)C(=O)OC(C)(C)C (stereo not shown)
### Response 201%

### Prompt Note, next up: CCC(C)(C)c1nc2ccc(C(=O)NCC3CCCCCC3)cc2[nH]1
### Response 78.5%
